target: chimeric BTLA of humanised-BTLA mice (human extracellular region, murine transmembrane and signaling … (human; mouse, UniProt Q7TSA3 184-306, limits assumed); further: test concentration or dose not given here
Sequence (Q7TSA3 other isoform, or with tags, fused parts or gaps mutant limits assumed): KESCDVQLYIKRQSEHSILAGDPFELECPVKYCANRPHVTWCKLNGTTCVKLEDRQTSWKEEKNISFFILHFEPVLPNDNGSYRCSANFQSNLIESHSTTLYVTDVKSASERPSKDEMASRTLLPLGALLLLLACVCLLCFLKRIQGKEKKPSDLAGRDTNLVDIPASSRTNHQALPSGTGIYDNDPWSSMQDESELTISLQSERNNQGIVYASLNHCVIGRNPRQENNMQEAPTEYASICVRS
assay-procedure: cell-based or functional assay
The binders listed here are annotated with their AntiCD3/CD28 (CD4 T cell proliferation) repeat 1.
Report the value in % inhibition with no unit label.

Consider the following illustrative entries.
binder	reading
7A1 (antibody, IgG1, V domains shown, mIgG1) VH: QVQLQQSGPELVKPGASVKISCKASGYAFSSSWMNWVKQRPGKGLEWIGRIYPGDGDTNYNGKFKGKATLTADKSSSTAYMQLSSLTSEDSAVYFCARRGYGYLAYWGQGTLVTVSA VL: DIVMTQSHKFMSTSVGDRVSITCKASQDVSTAVAWYQQKPGQSPKLLIYSASYRYTGVPDRFTGSGSGTDFTFTISSVQAEDLAVYYCQQHYSTPWTFGGGTKLEIK	14
4B1 (antibody, IgG1, V domains shown, mIgG1) VH: QVQLQQSGAELARPGASVRLSCKASGYTFTSYGLIWLKQRTGQGLEWIGEIYPRSGSTYYNEWFKGKATLTADKSSNTAFMELRSLTSEDSAVYFCARRRGTGDGFDYWGQGTILTVSS VL: DIQMTQTTSSLSASLGDRVTISCSASQGISNYLNWYQQKPDGTVKLLIYYTSSLHSGVPSRFSGSGSGTDYSLTISNLEPEDIATYYCQQYIELPFTFGSGTKLEIK	14

Query block: Looking for the measured AntiCD3/CD28 (CD4 T cell proliferation) repeat 1 of 4H4 (antibody, IgG1, V domains shown, mIgG1) VH: QVQLQQSGAELARPGASVKLSCKASGYTFTSYGISWVKQRTGQGLEWIGEIYPRSGNTYYNEKFKGKATLTADKSSSTAYMELRSLTSEDSAVYFCARRRGAGDGFDYWGQGTTLTVSS VL: DIQMTQTTSSLSASLGDRVTISCSASQGISNYLNWYQQKPDGTVKLLIYYTSSLHSGVPSRFSGSGSGTDYSLTISNLEPEDIATYYCQQYSKLPFTFGSGTKLEIK , can you help?
Result block: 14
